System: EPLC-272H
Assay comment: relative viability (nuclei count vs DMSO), 5 days (fraction); higher = more cells survive
Run parameters: first compound 6.325 µM
Entries and their measured relative viability follow.

>  <Compound>
Cc1csc(=NC2CCCCC2)n1/N=C/c1ccc(O)c(O)c1O [MIM1] + Cc1nc(NC(=O)N2CCC[C@H]2C(N)=O)sc1-c1ccnc(C(C)(C)C(F)(F)F)c1 [Alpelisib] (partner 2 µM)

>  <relative viability>
0.958

$$$$
>  <Compound>
Cc1csc(=NC2CCCCC2)n1/N=C/c1ccc(O)c(O)c1O [MIM1] + CC(=O)c1c(C)c2cnc(Nc3ccc(N4CCNCC4)cn3)nc2n(C2CCCC2)c1=O [Palbociclib] (partner 0.5 µM)

>  <relative viability>
0.279

$$$$
>  <Compound>
Cc1csc(=NC2CCCCC2)n1/N=C/c1ccc(O)c(O)c1O [MIM1] + Cc1nc(Nc2ncc(C(=O)Nc3c(C)cccc3Cl)s2)cc(N2CCN(CCO)CC2)n1 [Dasatinib] (partner 0.075 µM)

>  <relative viability>
0.312

$$$$
>  <Compound>
Cc1csc(=NC2CCCCC2)n1/N=C/c1ccc(O)c(O)c1O [MIM1] + N=C(N)NC(=N)NCCc1ccccc1 [Phenformin] (partner 250 µM)

>  <relative viability>
0.184

$$$$
>  <Compound>
Cc1csc(=NC2CCCCC2)n1/N=C/c1ccc(O)c(O)c1O [MIM1] + CCNC(=O)c1noc(-c2cc(C(C)C)c(O)cc2O)c1-c1ccc(CN2CCOCC2)cc1 [Luminespib] (partner 0.01 µM)

>  <relative viability>
0.143

$$$$

---

Entries and their measured relative viability follow.
Tested on: ABC-1
Assay comment: relative viability (nuclei count vs DMSO), 5 days (fraction); higher = more cells survive
Run parameters: first compound 0.2 µM

>  <Molecule>
CCNC(=O)c1noc(-c2cc(C(C)C)c(O)cc2O)c1-c1ccc(CN2CCOCC2)cc1 [Luminespib] + O=C(c1cc(Cc2n[nH]c(=O)c3ccccc23)ccc1F)N1CCN(C(=O)C2CC2)CC1 [Olaparib] (partner 8 µM)

>  <relative viability>
0.244

$$$$
>  <Molecule>
CN1CCN(CCOc2cc(OC3CCOCC3)c3c(Nc4c(Cl)ccc5c4OCO5)ncnc3c2)CC1 [Saracatinib] + CS(=O)(=O)CCNCc1ccc(-c2ccc3ncnc(Nc4ccc(OCc5cccc(F)c5)c(Cl)c4)c3c2)o1 [Lapatinib] (partner 2 µM)

>  <relative viability>
0.921

$$$$
>  <Molecule>
CCNC(=O)c1noc(-c2cc(C(C)C)c(O)cc2O)c1-c1ccc(CN2CCOCC2)cc1 [Luminespib] + Cc1nc(Nc2ncc(C(=O)Nc3c(C)cccc3Cl)s2)cc(N2CCN(CCO)CC2)n1 [Dasatinib] (partner 0.075 µM)

>  <relative viability>
0.193

$$$$
>  <Molecule>
CN1CCN(CCOc2cc(OC3CCOCC3)c3c(Nc4c(Cl)ccc5c4OCO5)ncnc3c2)CC1 [Saracatinib] + NC(=O)Nc1cc(-c2cccc(F)c2)sc1C(=O)N[C@H]1CCCNC1 [AZD7762] (partner 0.2 µM)

>  <relative viability>
0.825

$$$$

---

Entries and their measured relative viability follow.
Test system: NCI-H1651
Assay comment: relative viability (nuclei count vs DMSO), 5 days (fraction); higher = more cells survive
Run parameters: first compound 0.001 µM
Measure name: relative viability

>  <Molecule>
Cc1cn(-c2cc(NC(=O)c3ccc(C)c(Nc4nccc(-c5cccnc5)n4)c3)cc(C(F)(F)F)c2)cn1 [Nilotinib] + COc1cccc2cc(-c3nc([C@H]4CC[C@H](C(=O)O)CC4)n4ncnc(N)c34)[nH]c12 [OSI-027] (partner 0.5 µM)

>  <Obs value>
0.638

$$$$
>  <Molecule>
Cc1cn(-c2cc(NC(=O)c3ccc(C)c(Nc4nccc(-c5cccnc5)n4)c3)cc(C(F)(F)F)c2)cn1 [Nilotinib] + CC(=O)c1c(C)c2cnc(Nc3ccc(N4CCNCC4)cn3)nc2n(C2CCCC2)c1=O [Palbociclib] (partner 0.5 µM)

>  <Obs value>
0.555

$$$$
>  <Molecule>
Cc1cn(-c2cc(NC(=O)c3ccc(C)c(Nc4nccc(-c5cccnc5)n4)c3)cc(C(F)(F)F)c2)cn1 [Nilotinib] + Cc1cc(Nc2cc(N3CCN(C)CC3)nc(Sc3ccc(NC(=O)C4CC4)cc3)n2)n[nH]1 [Tozasertib] (partner 0.1 µM)

>  <Obs value>
0.458

$$$$
>  <Molecule>
Cc1cn(-c2cc(NC(=O)c3ccc(C)c(Nc4nccc(-c5cccnc5)n4)c3)cc(C(F)(F)F)c2)cn1 [Nilotinib] + C[C@]1(O)C[C@@H](c2nc(-c3ccc4ccc(-c5ccccc5)nc4c3)c3c(N)nccn32)C1 [Linsitinib] (partner 1 µM)

>  <Obs value>
1.08

$$$$
